# test.method.notes: Luminescence Cell-Based Dose Confirmation HTS to Identify Activators of 5'UTR Stem-Loop Driven Alpha-Synuclein mRNA Translation in H4 Neuroglioblastoma Cells. [Related pubchem assays: 1829 (Project Summary), 1814 (Primary HTS)]
# Format: functional
Activity calls are given as the source filed them. No stated cut-off is given here; in the data, actives have a measured EC50 and inactives only a lower limit.
value.kind: EC50

molecule	recorded.result
O=c1c2cc(N3CCOCC3)ccc2[nH]c(=S)n1Cc1ccc(Cl)cc1	5.35 µM (active)
O=C1C=CCC(/C=C/c2ccccc2)O1 (centres undefined)	> 120 µM (not active)
Cc1cc(Nc2nc3ccccc3nc2Cl)n(-c2ccccc2)n1	> 120 µM (not active)
CC(Cc1cccs1)NC(=O)NC1CCCCC1 (centres undefined)	> 60 µM (not active)
